Values from paper PMC2756588

# TARGET: Bem1-1, P29366
# Sequence (P29366 55-141): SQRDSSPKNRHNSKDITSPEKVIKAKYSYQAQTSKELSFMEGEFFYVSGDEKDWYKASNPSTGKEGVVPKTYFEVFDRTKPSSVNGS
# PROTOCOL DESCRIPTION: SPOT array
# MEASUREMENT CONTEXT: median of control spots 4282
VALUE KIND: SPOT intensity
Answer with a number only.

# annotated cases, reported SPOT intensity shown
# BINDER, SPOT intensity
data = [
    ("VQQDSLPKLPFRSWG", 0),
    ("LLIRWLILMPLVGSR", 0),
    ("LKQRFFLMFPKSIIW", 0),
    ("RSKRLFPVRPMATAH", 0),
    ("LKVTPGRRAPTISKI", 1),
]

Can you look up the measured SPOT intensity of `RPPRPPPKPLHLRTE` for me? 4

And what about the binder `EQEEIAPSLPSRNSI` ? 1

And what about the binder `VPPPMQPPPIESSNL` ? 0

And what about the binder `AHFQPQRTAPKPPIS` ? 0

And what about the binder `QTMRQAPKRPDADVA` ? 1

And what about the binder `KWVRRPKLMTPLTFS` ? 0

And what about the binder `DFTLPPPPPPPGLDE` ? 0
